- System: EKVX NSCLC
- assay comment: NCI-60 one-dose screen, 48 h
- measurement setup: 10 µM
The panel holds about 83,000 compounds, 20% with a hit somewhere; the sample as a whole holds those more often. Activity calls are given as the source filed them. How the source made its calls: active means growth percent below 10; inactive means the rest.
Your reply should match one of these outcome classes. T for active, F for inactive

input: What did this assay record as the result for COc1ccc(C2c3sc4ccc(C)cc4c3Oc3nc[nH]c(=O)c32)cc1 (centres undefined) ?
output: F

input: So what was the verdict on `COc1ccc2[nH]cc(-c3nc(N)nnc3-c3cn(C)c4ncc(Br)cc34)c2c1` in this test?
output: F

input: Test call for this compound, please: `COc1ccccc1-n1cc(C#N)c(N)c1C(=O)c1ccc(Cl)cc1Cl`
output: F

input: Record lookup: outcome of this test for `COc1cc2oc(-c3cccc(C(=O)Nc4ccc(Cl)cc4)c3)cc(=O)c2c(OCCNC(=O)[C@@H](N)CO)c1OC` ?
output: F

input: Which result was noted for this compound in the test: `C#C[C@]1(O)CC[C@H]2[C@@H]3CC=C4c5sc(Nc6ccc(C(F)(F)F)cn6)nc5CC[C@]4(C)[C@H]3CC[C@@]21C`
output: T

input: Test call for this compound, please: `COC(=O)CNC(=O)COc1c(OC)c(OC)cc2oc(-c3cccc(C(=O)Nc4ccc(Cl)cc4)c3)cc(=O)c12`
output: F

input: What outcome does the record of this test show for `O=C(CN1CCN(c2ncnc3c2cnn3-c2ccccc2)CC1)Nc1ccc(Br)cc1` ?
output: F

input: Please let me know the test result on file for `O=C(Nc1ccc(OCc2ccc(Cl)cc2)cc1)Nc1ccc(Cl)c(C(F)(F)F)c1` .
output: T

input: Tell me the recorded outcome of this test for `Cc1ccc2c(c1)C(=O)/C(=C/c1c[nH]c3ccccc13)S2` .
output: F

* * *

Assign growth to each entry below.
- Tested on: MDA-MB-468 breast
- assay comment: NCI-60 one-dose screen, 48 h (100 = growth as untreated, 0 = no growth, -100 = all killed)
- measurement setup: 10 µM unless noted
About 83,000 compounds went through this panel and 20% of them were active in at least one assay; those are over-represented in the sample as a whole. Activity calls are given as the source filed them. How the source made its calls: active means growth percent below 10; inactive means the rest.

input: Requested read-out: growth. Entry: `O=C(Nc1ccc(N2CCNCC2)cc1)c1[nH]ncc1Nc1cc(Oc2ccccc2)ncn1`
output: 34.6% (inactive)

input: If you can, please state the reported growth value of `CC(C)(C)c1ccc(S(=O)(=O)O)s1` .
output: 109% (inactive)

input: Fill in: growth of `COc1cc(NC(=O)c2cc3ccccc3cc2O)c(OC)cc1Cl` is ___
output: -5.6% (active)

input: Request the reported growth associated with `CC(=O)Cc1ccccn1`
output: 120% (inactive)

input: // returns reported growth for input `CC(=O)Oc1csc(N(C(C)=O)c2cc(C(=O)O)cc(C(=O)O)c2)n1`
output: 95.2% (inactive)

input: Form field: reported growth of `CC1=C(C(=O)n2c3ccccc3c3ccccc32)C(c2cccc([N+](=O)[O-])c2)C(C(=O)n2c3ccccc3c3ccccc32)=C(C)N1`
output: 118% (inactive)

input: Quick check: growth of `COc1ccc(Nc2cc(Cl)ccc2C(=O)O)cn1` ?
output: 95.8% (inactive)

input: Give the measured growth of `N#C/C(C(=O)c1ccccc1)=C1/C(=O)Nc2ccc(F)cc21` .
output: 106% (inactive)

input: # lookup: growth of `NCCCNc1nc2ccccc2c2c(=O)c3cc(C(F)(F)F)ccc3sc12`
output: -49.1% (active)

input: I am curious: what growth value has been reported for `Cc1[nH]c(C(=O)Nc2ccc(C(N)=O)cc2NC(C)C)c(Cl)c1Cl` ?
output: 83.7% (inactive)

input: Which growth is reported for this compound? Cc1cc2c(c(=O)o1)C(c1ccc(OC(=O)N3CCOCC3)cc1)C(C#N)=C(N)O2 (stereo unspecified)
output: 119% (inactive)

input: Any idea what its growth is? The compound is `COc1ccc(/C=C/C(=O)c2cc(O)ccc2O)cc1`
output: 71.2% (inactive)

input: Need growth of `COC(=O)[C@]12CC[C@@H](C)[C@H](C)[C@@H]1C1=CC[C@@H]3[C@@]4(C)C(C=O)=C[C@@](C)(COC(=O)c5ccco5)[C@@H]4C(=O)C[C@@]3(C)[C@]1(C)CC2` , thanks.
output: 9.8% (active)

input: // lookup growth for CCCCNC(=O)NS(=O)(=O)c1ccc(N2N=C(c3cc(C)ccc3C)CC2c2cc(OC)c(OC)c(OC)c2)cc1 (stereo unspecified)
output: 24.4% (inactive)

input: Can you look up the measured growth of `COC(=O)[C@]1(C)CCC[C@]2(C)[C@H]3C[C@H]4C(C(C)C)=C[C@]3(CC[C@H]21)[C@@H]1C(=O)N(CCC#N)C(=O)[C@@H]14` for me?
output: 86.9% (inactive)

input: Please look up its growth: `C=CCNCCC#N`
output: 98.1% (inactive)

All figures here come from PubChem BioAssay (NCI).
